Source: patent US20220105058A1

Tested on: hepatocellular carcinoma SK-Hep-1 cells
Measurement description: activity against SK-Hep-1 cells
Assay type: cell-based
Condition context: Homo sapiens, SK-HEP1
pIC50: −log10 of the molar value.

>  <Substance smiles>
CC1(C)CC(=O)[C@@]2(C)CCc3c(ccc4cc(OS(N)(=O)=O)ccc34)[C@@H]2C1

>  <Assayed system>
hepatocellular carcinoma SK-Hep-1 cells

>  <pIC50>
4.27

$$$$

* * *

System: lung cancer A549
Measurement description: activity against A549
Format: cell-based
Condition context: Homo sapiens

>  <Substance smiles>
CC1(C)CC(=O)[C@@]2(C)CCc3c(ccc4cc(OS(N)(=O)=O)ccc34)[C@@H]2C1

>  <IC50, µM>
29.6

$$$$

* * *

Measurement description: acute oral toxicity, OECD 423 test
Condition context: 2000 mg/kg; Day 2

>  <Substance smiles>
CC1(C)CC(=O)[C@@]2(C)CCc3c(ccc4cc(OS(N)(=O)=O)ccc34)[C@@H]2C1

>  <average body weight / g>
25.8

$$$$

* * *

Measurement description: acute oral toxicity, OECD 423 test
Condition context: 2000 mg/kg; Day 7

>  <Substance smiles>
CC1(C)CC(=O)[C@@]2(C)CCc3c(ccc4cc(OS(N)(=O)=O)ccc34)[C@@H]2C1

>  <average body weight (g)>
25.7

$$$$

* * *

Measurement description: acute oral toxicity, OECD 423 test
Condition context: 2000 mg/kg; Day 14

>  <Substance smiles>
CC1(C)CC(=O)[C@@]2(C)CCc3c(ccc4cc(OS(N)(=O)=O)ccc34)[C@@H]2C1

>  <average body weight, g>
27

$$$$
